Parameter Affinity ELISA pH 7.4: see the listing below.
target: T1, human Ror2 (human, UniProt Q01974 34-403, limits assumed); experiment: ELISA, human Ror2, pH 7.4; note: unit not given here
T1 construct: also called hROR2; receptor tyrosine kinase-like orphan receptor 2
T1 sequence (Q01974 34-403 limits assumed): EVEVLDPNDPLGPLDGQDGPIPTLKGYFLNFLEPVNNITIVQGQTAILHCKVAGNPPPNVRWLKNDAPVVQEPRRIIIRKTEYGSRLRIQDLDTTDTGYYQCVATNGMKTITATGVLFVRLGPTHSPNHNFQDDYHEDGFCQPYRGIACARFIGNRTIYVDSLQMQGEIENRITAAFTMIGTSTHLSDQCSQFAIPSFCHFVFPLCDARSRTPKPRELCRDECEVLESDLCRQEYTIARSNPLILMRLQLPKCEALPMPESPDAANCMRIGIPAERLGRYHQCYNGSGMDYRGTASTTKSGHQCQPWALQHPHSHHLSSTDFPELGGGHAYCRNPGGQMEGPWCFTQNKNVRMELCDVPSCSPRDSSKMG
parameter_measured: Affinity ELISA pH 7.4

* HC-G105D (antibody, V domains shown) VH: EVQLQQSGPELVKPGASVKISCKTSGYTFTEYTMHWMKQSHRKSLEWIGGINTNNGGTGYNQKFKGKATLTVDKSSSTAYMELRSLTSEDSAVYFCARGSLYSYDNSYFDYWGQGTLVTVSS VL: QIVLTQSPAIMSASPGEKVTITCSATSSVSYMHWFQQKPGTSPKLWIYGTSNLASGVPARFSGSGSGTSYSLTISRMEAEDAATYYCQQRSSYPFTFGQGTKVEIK | 0.379
* HC-S103G (antibody, V domains shown) VH: EVQLQQSGPELVKPGASVKISCKTSGYTFTEYTMHWMKQSHRKSLEWIGGINTNNGGTGYNQKFKGKATLTVDKSSSTAYMELRSLTSEDSAVYFCARGSLYGYGNSYFDYWGQGTLVTVSS VL: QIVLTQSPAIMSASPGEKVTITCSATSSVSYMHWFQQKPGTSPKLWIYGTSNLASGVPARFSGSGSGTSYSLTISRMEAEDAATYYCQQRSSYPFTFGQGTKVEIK | 0.655
* HC-N106E (antibody, V domains shown) VH: EVQLQQSGPELVKPGASVKISCKTSGYTFTEYTMHWMKQSHRKSLEWIGGINTNNGGTGYNQKFKGKATLTVDKSSSTAYMELRSLTSEDSAVYFCARGSLYSYGESYFDYWGQGTLVTVSS VL: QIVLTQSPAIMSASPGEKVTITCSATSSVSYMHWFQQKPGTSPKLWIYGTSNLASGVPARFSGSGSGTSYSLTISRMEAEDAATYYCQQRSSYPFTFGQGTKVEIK | 0.115

Provenance of the data: patent US20200002414A1
